Tested on: HCI-023 (organoid from a triple-negative breast cancer xenograft)
TEST_PROTOCOL: CTG-3D luminescence at 96 h relative to day-0 seeding control (ratio to day 0); higher = more growth / less cytotoxicity; PDxO 3D drug screen, 96 h, CTG-3D normalised to day-0 seeding control.
CONDITION_PARAMETERS: 100 µM; days in culture: 128
READOUT_TYPE: CTG-3D luminescence at 96 h
// no unit string in output, number only

Ask | Find the recorded CTG-3D luminescence at 96 h belonging to CN(Cc1cnc2nc(N)nc(N)c2n1)c1ccc(C(=O)N[C@@H](CCC(=O)O)C(=O)O)cc1 [methotrexate] and report it.
Reply | 1.22

Ask | Sample O=C(O)C1(C(=O)O)CCC1.[NH2-].[NH2-].[Pt+2] — what was its CTG-3D luminescence at 96 h?
Reply | 0.0724

Ask | Consider the compound O=C(c1ccc(F)c(F)c1Nc1ccc(I)cc1F)N1CC(O)([C@@H]2CCCCN2)C1 and give its measured CTG-3D luminescence at 96 h.
Reply | -0.000598

Ask | Param item = C[C@H](NC(=O)CCC(F)(F)F)C(=O)N[C@@H]1C(=O)N(CCO)c2ncccc2-c2ccccc21 ; retrieve measured CTG-3D luminescence at 96 h.
Reply | 1.13
